Item-by-item account of melting point

{"columns": ["compound", "melting point"],
 "data": [
  ["COc1ccc(C(=O)Nc2ccccc2)cc1NS(=O)(=O)c1ccccc1Cl", "107 to 109 °C"],
  ["COc1ccc(C(=O)Nc2ccc(C)c(Cl)c2)cc1NC(=S)Nc1cc(Cl)cc(Cl)c1", "195 to 196 °C"],
  ["COc1ccc(C(=O)Nc2ccccc2)cc1Nc1cc(C)cc(C)c1", "198 to 199 °C"],
  ["COc1ccc(C(=O)Nc2ccccc2)cc1NS(=O)(=O)c1cn(C)cn1", "250 to 252 °C"],
  ["COc1ccc(C(=O)Nc2ccc(F)cc2F)cc1N", "166 to 168 °C"],
  ["COc1ccc(C(=O)Nc2ccccc2)cc1NCCc1cccc(C(F)(F)F)c1", "142 to 144 °C"],
  ["COc1ccc(C(=O)Nc2ccccc2)cc1NC(=S)Nc1ccc(Cl)c([N+](=O)[O-])c1", "174 to 175 °C"],
  ["COc1ccc(C(=O)Nc2ccc(C)cc2)cc1N", "190 to 194 °C"],
  ["COc1ccc(C(=O)Nc2cc(C)cc(C)c2)cc1NC(=S)Nc1cccc(C)c1", "188 to 189 °C"],
  ["CSc1ccc(C(=O)Nc2ccccc2)cc1Nc1cccc(C(F)(F)F)c1", "169 to 170 °C"],
  ["O=C(Nc1ccccc1)c1cccc(NC(=S)Nc2cc(Cl)cc(Cl)c2)c1", "174 to 177 °C"],
  ["COc1ccc(C(=O)Nc2ccccc2)cc1NC(=S)Nc1cccc(C)c1", "168 to 171 °C"],
  ["COc1ccc(C(=O)Nc2ccc(F)cc2)cc1NC(=S)Nc1cc(Cl)cc(Cl)c1", "175 to 178 °C"],
  ["CCc1ccc(C(=O)Nc2ccc(F)c(F)c2)cc1N", "108 to 110 °C"],
  ["COc1ccc(C(=O)Nc2ccc(Cl)c(Cl)c2)cc1NC(=S)Nc1cc(Cl)cc(Cl)c1", "189 to 191 °C"],
  ["COc1ccc(C(=O)Nc2ccc(F)cc2)cc1N", "164 to 167 °C"],
  ["CCc1ccc(C(=O)Nc2ccccc2)cc1N [Example 17, 3-Amino-4-ethyl-N-phenyl-benzamide]", "111 to 113 °C"],
  ["CCCCCCCCCCCCS(=O)(=O)Nc1cc(C(=O)Nc2ccc(Cl)c(Cl)c2)ccc1OC", "151 to 152 °C"],
  ["COc1ccc(C(=O)Nc2ccc(Cl)cc2)cc1NC(=S)Nc1cc(Cl)cc(Cl)c1", "180 to 185 °C"],
  ["COc1ccc(C(=O)Nc2cccc(Cl)c2)cc1NC(=S)Nc1ccc(F)cc1", "184 to 185 °C"],
  ["COc1ccc(C(=O)Nc2ccc(F)cc2)cc1Nc1cccc(C(F)(F)F)c1", "163 to 164 °C"],
  ["COc1ccc(NC(=O)c2ccc(O)c(Nc3cc(Cl)cc(Cl)c3)c2)cc1", "186 to 187 °C"],
  ["COc1ccc(C(=O)Nc2ccc(Cl)c(Cl)c2)cc1NS(C)(=O)=O", "226 to 228 °C"],
  ["COc1ccc(C(=O)Nc2ccc(F)cc2)cc1Nc1cc(C)cc(C)c1", "199 to 200 °C"],
  ["COc1ccc(C(=O)Nc2ccccc2)cc1NS(=O)(=O)c1cccc(Cl)c1", "197 to 199 °C"],
  ["COc1ccc(NC(=O)c2ccccc2)cc1NC(=S)Nc1cc(Cl)cc(Cl)c1", "194 to 195 °C"],
  ["Nc1cc(C(=O)Nc2ccc(F)cc2)ccc1OC(F)(F)F", "139 to 140 °C"],
  ["COc1ccc(C(=O)Nc2cccnc2)cc1Nc1cccc(C(F)(F)F)c1", "184 to 185 °C"],
  ["COc1ccc(C(=O)Nc2ccccc2)cc1NC(=S)Nc1cc(C(F)(F)F)cc(C(F)(F)F)c1", "192 to 193 °C"],
  ["O=C(Nc1ccccc1)c1cccc(Oc2ccccc2)c1 [Example 53, 3-Phenoxy-N-phenyl-benzamide]", "111 to 112 °C"],
  ["COc1ccc(C(=O)Nc2ccccc2)cc1NS(=O)(=O)c1ccc(C(F)(F)F)cc1", "197 to 198 °C"],
  ["COc1ccc(NC(=O)Nc2ccccc2)cc1N", "174 to 175 °C"],
  ["COc1ccc(NC(=O)c2ccc(OC)c(NC(=S)Nc3cc(Cl)cc(Cl)c3)c2)cc1", "175 to 182 °C"]
]}
